# Assayed system: NHERF4_1, Q86UT5-2
# Sequence (Q86UT5 other isoform, or with tags, fused parts or gaps): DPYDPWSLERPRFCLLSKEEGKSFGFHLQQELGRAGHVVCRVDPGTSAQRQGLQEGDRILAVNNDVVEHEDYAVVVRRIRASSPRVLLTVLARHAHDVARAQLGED
# Experiment: holdup assay
# Set-up: key: below the threshold = too weak to quantify, mostly under pKd 3.1 to 4
# Assay conditions: plain residues with an end cap or a label only (N-terminal biotin on a linker: ado-ado)
Measurement kind: pKd

Binder	Measurement kind	Reported value
LVEEEEPMNL [HDAC7, Q8WUI4]	pKd	3.57
DLLGGGSDSI [TNRC6B, Q9UPQ9]	pKd	3.63
THHRKIHTRV [ZNF599, Q96NL3]	pKd	3.72
TKEIPNCTSV [SORCS3, Q9UPU3]	pKd	4.2
SRPHTNETSL [MCC, P23508]	pKd	4.12
FLVTEFNVML [DFNB31, Q9P202]	pKd	3.9
YAEKRMLTEV [KCNA6, P17658]	pKd	below the threshold
ADEMICITTL [CACNA1D, Q01668]	pKd	4.52
QLKSGRDSTV [TMEM178A, Q8NBL3]	pKd	below the threshold
EKPIDSETKM [SLC1A3, P43003]	pKd	below the threshold
AKADAQESRL [PLCB2, Q00722]	pKd	3.84
ATKDKKITTV [EXOC4, Q96A65]	pKd	3.64
KEKASTETEC [TRPM1, Q7Z4N2]	pKd	3.66
SQPLLVHDDV [KIT, P10721]	pKd	below the threshold
KIEDVEITLV [FCHSD2, O94868]	pKd	3.73
SQDPKKPSRV [CBY2, Q8NA61]	pKd	below the threshold
